- REPORTED_CONDITIONS: in NMP, 283.15 K

{"TEST_SMILES": "N#Cc1cccc([N+](=O)[O-])c1C#N", "solubility (mole fraction)": 0.0936}

* * *

- REPORTED_CONDITIONS: in n-butanol, 288.15 K
QUANTITY: solubility (mole fraction)

{"TEST_SMILES": "N#Cc1cccc([N+](=O)[O-])c1C#N", "READOUT_NUMBER": 0.000569}

* * *

- REPORTED_CONDITIONS: in n-butanol, 308.15 K
QUANTITY: solubility (mole fraction)

{"TEST_SMILES": "N#Cc1cccc([N+](=O)[O-])c1C#N", "READOUT_NUMBER": 0.0012}

* * *

- REPORTED_CONDITIONS: in methanol, 308.15 K

{"TEST_SMILES": "N#Cc1cccc([N+](=O)[O-])c1C#N", "solubility (mole fraction)": 0.00523}

* * *

- REPORTED_CONDITIONS: in water, 298.15 K
QUANTITY: solubility (mole fraction)

{"TEST_SMILES": "N#Cc1cccc([N+](=O)[O-])c1C#N", "READOUT_NUMBER": 0.00012}

* * *

- REPORTED_CONDITIONS: in n-butanol, 293.15 K
QUANTITY: solubility (mole fraction)

{"TEST_SMILES": "N#Cc1cccc([N+](=O)[O-])c1C#N", "READOUT_NUMBER": 0.000686}

* * *

- REPORTED_CONDITIONS: in water, 303.15 K

{"TEST_SMILES": "N#Cc1cccc([N+](=O)[O-])c1C#N", "solubility (mole fraction)": 0.000146}

* * *

- REPORTED_CONDITIONS: in n-propanol, 298.15 K
QUANTITY: solubility (mole fraction)

{"TEST_SMILES": "N#Cc1cccc([N+](=O)[O-])c1C#N", "QUANTITY": "solubility (mole fraction)", "READOUT_NUMBER": 0.00159}

* * *

- REPORTED_CONDITIONS: in ethyl acetate, 323.15 K
QUANTITY: solubility (mole fraction)

{"TEST_SMILES": "N#Cc1cccc([N+](=O)[O-])c1C#N", "READOUT_NUMBER": 0.063}

* * *

- REPORTED_CONDITIONS: in NMP, 323.15 K
QUANTITY: solubility (mole fraction)

{"TEST_SMILES": "N#Cc1cccc([N+](=O)[O-])c1C#N", "QUANTITY": "solubility (mole fraction)", "READOUT_NUMBER": 0.203}

* * *

- REPORTED_CONDITIONS: in n-propanol, 283.15 K
QUANTITY: solubility (mole fraction)

{"TEST_SMILES": "N#Cc1cccc([N+](=O)[O-])c1C#N", "READOUT_NUMBER": 0.000899}

* * *

- REPORTED_CONDITIONS: in isopropanol, 313.15 K

{"TEST_SMILES": "N#Cc1cccc([N+](=O)[O-])c1C#N", "solubility (mole fraction)": 0.00216}

* * *

- REPORTED_CONDITIONS: in ethanol, 313.15 K

{"TEST_SMILES": "N#Cc1cccc([N+](=O)[O-])c1C#N", "solubility (mole fraction)": 0.00325}
